TARGET ENTITY: human CaSR (Homo sapiens)
Construct: host or cells: CCL39 hamster lung fibroblasts stably transfected (HCAR), Geneticin selection
PROTOCOL: FLIPR-based functional CaSR calcium assay in HCAR cells
Type: cell-based
PROTOCOL CONDITIONS: EC50 in 0.1% BSA, 0.1% BSA
MEASURED PROPERTY: pEC50
Answer as the number alone; pEC50 is minus log10 of concentration in mol/L.

IN: # lookup: pEC50 of Cc1cc(C(=O)NCCCCNC(=O)Cc2ccc(N3CC[C@H](N[C@H](C)c4cccc5ccccc45)C3)cc2)ccc1C1=C2C=CC(=[N+](C)C)C=C2[Si](C)(C)c2cc(N(C)C)ccc21
OUT: 7.19

---

TARGET ENTITY: human CaSR (Homo sapiens, UniProt P41180)
Construct: host or cells: CCL39 hamster lung fibroblasts stably transfected (HCAR), Geneticin selection
PROTOCOL: FLIPR-based functional CaSR calcium assay in HCAR cells
Type: cell-based
PROTOCOL CONDITIONS: EC50 in 1% BSA, 1% BSA
Description: Hamster lung fibroblasts (CCL39, CaSR−) expressing the recombinant human CaSR (HCAR, CaSR+) and nontransected controls were kindly provided by Novartis AG and were kept in standard culturing conditions (37 °C, 5% CO2) in 1/2 DMEM (Roth, 9005.1)—1/2 F-12 (Sigma, N4888–500 mL) media containing 10% FBS. […] The fluorescence was measured using a Tecan GENios pro microplate reader with the following parameters: λex = 612 nm, λem = 670 nm, gain = 50 AU. […]
MEASURED PROPERTY: pEC50
Answer as the number alone; pEC50 is minus log10 of concentration in mol/L.

IN: # lookup: pEC50 of Cc1cc(C(=O)NCCCCNC(=O)Cc2ccc(N3CC[C@H](N[C@H](C)c4cccc5ccccc45)C3)cc2)ccc1C1=C2C=CC(=[N+](C)C)C=C2[Si](C)(C)c2cc(N(C)C)ccc21
OUT: 6.97

---

TARGET ENTITY: human CaSR (Homo sapiens, UniProt P41180)
Construct: host or cells: CCL39 hamster lung fibroblasts stably transfected (HCAR), Geneticin selection
Sequence (P41180 20-1078): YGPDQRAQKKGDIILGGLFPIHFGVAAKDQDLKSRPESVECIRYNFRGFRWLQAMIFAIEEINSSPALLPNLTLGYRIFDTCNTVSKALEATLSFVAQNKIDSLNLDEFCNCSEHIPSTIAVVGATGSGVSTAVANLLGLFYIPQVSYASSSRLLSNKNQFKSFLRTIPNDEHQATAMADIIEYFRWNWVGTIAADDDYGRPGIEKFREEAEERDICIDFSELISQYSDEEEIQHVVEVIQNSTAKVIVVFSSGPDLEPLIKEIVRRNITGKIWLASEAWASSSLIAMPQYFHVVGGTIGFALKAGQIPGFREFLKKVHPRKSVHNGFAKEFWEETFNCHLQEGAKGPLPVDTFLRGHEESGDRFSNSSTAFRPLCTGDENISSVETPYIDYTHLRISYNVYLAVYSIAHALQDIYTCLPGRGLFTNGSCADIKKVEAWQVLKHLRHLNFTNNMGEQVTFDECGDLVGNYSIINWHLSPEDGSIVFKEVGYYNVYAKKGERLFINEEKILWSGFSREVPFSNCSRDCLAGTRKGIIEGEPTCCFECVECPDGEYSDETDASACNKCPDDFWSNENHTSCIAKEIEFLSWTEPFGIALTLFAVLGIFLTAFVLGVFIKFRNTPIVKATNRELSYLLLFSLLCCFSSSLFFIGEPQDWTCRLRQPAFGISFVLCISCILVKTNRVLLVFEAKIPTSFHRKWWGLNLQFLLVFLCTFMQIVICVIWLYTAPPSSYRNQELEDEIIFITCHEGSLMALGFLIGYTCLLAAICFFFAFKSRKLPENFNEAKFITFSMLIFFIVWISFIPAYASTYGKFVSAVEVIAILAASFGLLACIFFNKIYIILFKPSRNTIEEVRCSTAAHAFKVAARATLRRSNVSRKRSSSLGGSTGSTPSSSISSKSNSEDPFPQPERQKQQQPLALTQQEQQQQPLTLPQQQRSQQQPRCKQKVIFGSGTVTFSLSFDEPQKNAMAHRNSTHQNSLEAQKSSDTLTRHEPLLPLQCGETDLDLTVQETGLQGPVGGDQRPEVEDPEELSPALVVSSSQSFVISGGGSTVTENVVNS
PROTOCOL: FLIPR-based functional CaSR calcium assay in HCAR cells
Format: cell-based
PROTOCOL CONDITIONS: HCAR cells, dF/F0; read-out: EC50 of intracellular calcium release in response to extracellular calcium
MEASURED PROPERTY: pEC50
Answer as the number alone; pEC50 is minus log10 of concentration in mol/L.

IN: # lookup: pEC50 of [Ca+2].[Cl-].[Cl-] [extracellular calcium, CaCl2, reference compound]
OUT: 3.60

---

TARGET ENTITY: UniProt P41180
Sequence (P41180 20-1078): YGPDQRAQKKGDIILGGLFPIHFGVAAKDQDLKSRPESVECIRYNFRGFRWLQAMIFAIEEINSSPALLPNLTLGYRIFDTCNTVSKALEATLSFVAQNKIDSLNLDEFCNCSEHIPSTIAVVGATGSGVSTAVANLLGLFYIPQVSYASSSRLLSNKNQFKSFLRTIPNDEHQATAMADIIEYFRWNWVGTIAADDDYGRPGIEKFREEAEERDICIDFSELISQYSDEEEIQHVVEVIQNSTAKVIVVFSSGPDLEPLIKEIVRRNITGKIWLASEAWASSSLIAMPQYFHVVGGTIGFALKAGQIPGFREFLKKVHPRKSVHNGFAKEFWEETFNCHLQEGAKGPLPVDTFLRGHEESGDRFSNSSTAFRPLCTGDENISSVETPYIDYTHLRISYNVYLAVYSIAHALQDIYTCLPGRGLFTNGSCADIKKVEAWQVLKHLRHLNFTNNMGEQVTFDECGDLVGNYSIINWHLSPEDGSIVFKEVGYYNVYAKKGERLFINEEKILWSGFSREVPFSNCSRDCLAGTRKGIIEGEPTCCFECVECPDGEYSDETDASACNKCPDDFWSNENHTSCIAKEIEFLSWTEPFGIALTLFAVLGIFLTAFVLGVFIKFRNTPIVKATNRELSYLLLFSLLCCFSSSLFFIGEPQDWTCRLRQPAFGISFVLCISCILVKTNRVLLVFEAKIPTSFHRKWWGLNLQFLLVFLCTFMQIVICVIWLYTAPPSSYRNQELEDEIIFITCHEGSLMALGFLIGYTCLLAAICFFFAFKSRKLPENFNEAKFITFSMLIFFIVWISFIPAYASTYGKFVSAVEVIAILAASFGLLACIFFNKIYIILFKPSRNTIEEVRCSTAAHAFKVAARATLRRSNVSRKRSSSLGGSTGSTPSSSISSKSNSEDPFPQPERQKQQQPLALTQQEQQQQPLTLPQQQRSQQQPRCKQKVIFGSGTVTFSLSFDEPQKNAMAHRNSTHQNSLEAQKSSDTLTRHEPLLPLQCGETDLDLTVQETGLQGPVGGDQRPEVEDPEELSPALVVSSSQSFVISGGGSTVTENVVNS
The reader will find reported Kd values listed item by item below.
Kindly provide the numeric value in µM only, without the unit symbol.

IN: # lookup: Kd of Cc1cc(C(=O)NCCCCCCNC(=O)Cc2ccc(N3CC[C@H](N[C@H](C)c4cccc5ccccc45)C3)cc2)ccc1C1=C2C=CC(=[N+](C)C)C=C2[Si](C)(C)c2cc(N(C)C)ccc21
OUT: 0.071

IN: # lookup: Kd of Cc1cc(C(=O)NCCCCNC(=O)Cc2ccc(N3CC[C@H](N[C@H](C)c4cccc5ccccc45)C3)cc2)ccc1C1=C2C=CC(=[N+](C)C)C=C2[Si](C)(C)c2cc(N(C)C)ccc21
OUT: 0.0536

---

TARGET ENTITY: human CaSR (Homo sapiens, UniProt P41180)
Construct: host or cells: CCL39 hamster lung fibroblasts stably transfected (HCAR), Geneticin selection
Sequence (P41180 20-1078): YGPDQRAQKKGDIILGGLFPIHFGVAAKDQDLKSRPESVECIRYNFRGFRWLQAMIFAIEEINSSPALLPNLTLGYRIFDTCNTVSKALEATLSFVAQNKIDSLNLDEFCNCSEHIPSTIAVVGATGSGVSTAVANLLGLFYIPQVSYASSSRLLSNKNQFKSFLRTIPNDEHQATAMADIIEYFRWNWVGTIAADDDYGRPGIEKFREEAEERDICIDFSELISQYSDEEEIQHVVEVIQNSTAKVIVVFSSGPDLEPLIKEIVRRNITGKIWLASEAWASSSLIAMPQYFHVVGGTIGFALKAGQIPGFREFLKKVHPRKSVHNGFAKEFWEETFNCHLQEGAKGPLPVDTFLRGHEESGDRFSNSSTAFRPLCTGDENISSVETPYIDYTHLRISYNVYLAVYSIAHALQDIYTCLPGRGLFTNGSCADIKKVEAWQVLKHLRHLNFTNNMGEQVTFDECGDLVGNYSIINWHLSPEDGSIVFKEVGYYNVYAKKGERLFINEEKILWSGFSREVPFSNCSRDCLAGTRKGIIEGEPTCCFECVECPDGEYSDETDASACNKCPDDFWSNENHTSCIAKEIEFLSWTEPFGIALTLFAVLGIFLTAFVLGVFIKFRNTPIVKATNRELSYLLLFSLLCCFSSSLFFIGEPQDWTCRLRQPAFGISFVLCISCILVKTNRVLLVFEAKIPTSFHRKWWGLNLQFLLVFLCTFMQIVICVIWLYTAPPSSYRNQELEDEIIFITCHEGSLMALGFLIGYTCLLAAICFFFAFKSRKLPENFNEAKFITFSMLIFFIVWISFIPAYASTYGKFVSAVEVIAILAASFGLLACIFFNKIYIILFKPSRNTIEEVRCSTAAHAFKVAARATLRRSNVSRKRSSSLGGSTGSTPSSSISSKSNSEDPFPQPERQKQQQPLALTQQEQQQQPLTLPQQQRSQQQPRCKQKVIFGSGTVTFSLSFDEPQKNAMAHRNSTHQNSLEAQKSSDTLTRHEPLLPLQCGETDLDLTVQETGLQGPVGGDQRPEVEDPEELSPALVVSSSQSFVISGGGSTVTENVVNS
PROTOCOL: FLIPR-based functional CaSR calcium assay in HCAR cells
Format: cell-based
PROTOCOL CONDITIONS: HCAR cells, response to addition of 0.5 mM CaCl2, no BSA; read-out: EC50, positive allosteric modulation of CaSR activity
MEASURED PROPERTY: EC50 (nM)
Kindly provide the numeric value in nM only, without the unit symbol.

C[C@@H](N[C@H]1CCN(c2ccc(CC(=O)NCCCCNC(=O)OC(C)(C)C)cc2)C1)c1cccc2ccccc12 [compound 1] : 101

# input for lookup
IN: # lookup: EC50 of C[C@@H](N[C@H]1CCN(c2ccc(CC(=O)O)cc2)C1)c1cccc2ccccc12 [evocalcet]
OUT: 243
